Data origin: PubChem BioAssay AID1159580

- Measurement protocol: chemical genetic growth profiling, strain panel (AID 1159580);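 note: tested at 20 µM; growth read once vehicle control cultures reached saturation at 30 °C; lower values mean less growth of the strain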
- Measurement conditions: S. cerevisiae deletion strains, growth OD, locus YLR039C, strain RIC1
In all, about 5,500 compounds went through this assay and about 2,000 (36%) were called active. Not shown: some 18% with an inconclusive outcome. Cut-off read from the data, not from the text of the source: active = normalized growth mostly below about 0.91 (no sharp cut-off); inconclusive = no clear call, values can overlap the other calls; inactive = mostly above about 0.92. This is one part of the list.
Respond using exactly one of the listed classes: active, inactive

Please share the test call associated with "COc1ccc(C(=O)c2ccccc2O)c(O)c1" .
active

Next record, please: "COC(=O)COc1ccc(Cl)cc1Cl"
inactive

Next record, please: "Cc1cc(=O)c2c(O)c(C)c(O)cc2o1"
inactive

Next record, please: "O=C1C[C@@H](c2ccccc2)Oc2cc(O)cc(O)c21"
inactive

Next record, please: CC1(O)/C=C/C=C(\CO)C2CC(C)(C)C2(O)CC1 (stereo unspecified)
inactive

Next record, please: "Cn1cc[nH]c1=S"
inactive

Next record, please: "Cc1c(C(=O)O)cc(-c2ccccc2)n1-c1ccccc1"
active

Next record, please: "O=C(O)c1cc(=O)c2cc(Cl)ccc2[nH]1"
inactive

Next record, please: CCC(C(=O)O)c1ccccc1 (stereo unspecified)
inactive

Next record, please: "C[C@@H]1O[C@@H](O[C@H]2[C@@H](Oc3cc(O)c4c(c3)O[C@H](c3ccc(O)cc3)CC4=O)O[C@H](CO)[C@@H](O)[C@@H]2O)[C@H](O)[C@H](O)[C@H]1O"
inactive

Next record, please: "COc1ccccc1C1CCN(C(=O)c2ccc(F)cc2)CC1"
inactive

Next record, please: "O=C(O)c1cc(=O)c2ccc(Cl)cc2[nH]1"
inactive

Next record, please: O=C(Nc1ccccc1C(=O)NC1CCCCNC1=O)c1cccs1 (stereo unspecified)
inactive

Next record, please: "O=c1ccc2ccccc2o1"
inactive

Next record, please: "COc1cc(O)c2c(=O)cc(C)oc2c1CC=C(C)C"
inactive

Next record, please: O=C1CC(c2ccccc2)Oc2ccccc21 (stereo unspecified)
inactive

Next record, please: "O=C(O)COc1cc(Cl)c(Cl)cc1Cl"
inactive

Next record, please: "COc1ccc(C(=O)c2ccccc2)c(O)c1"
active

Next record, please: CO[C@H]1C[C@H](O[C@H]2[C@H](C)[C@@H](OC3O[C@H](C)C[C@H](N(C)C)[C@H]3O)[C@@H](C)C[C@]3(CO3)C(=O)[C@H](C)[C@@H](O)[C@@H](C)[C@@H](C)OC(=O)[C@@H]2C)O[C@@H](C)[C@@H]1O (stereo partly specified)
inactive

Next record, please: "Cc1cc(NC(=O)C(Cl)(Cl)Cl)n(-c2ccccc2)n1"
active

Next record, please: COC(=O)C1[C@H]2C[C@H]3c4[nH]c5ccccc5c4CCN3C[C@@H]2CC[C@@H]1O (stereo partly specified)
inactive

Next record, please: "COc1ccc(S(=O)(=O)Nc2cc(C)c(C)cc2[N+](=O)[O-])c(OC)c1"
inactive

Next record, please: "O=C(O)C1c2ccccc2Oc2ccccc21"
inactive

Next record, please: "COC(=O)[C@H]1[C@H]2C[C@H]3c4[nH]c5ccccc5c4CCN3C[C@H]2CC[C@@H]1O"
inactive

Next record, please: "CNC(=S)NN=C(N)c1ccccn1"
active

Next record, please: COc1ccc(C2CC(=O)c3ccc(OC)cc3O2)cc1 (stereo unspecified)
inactive

Next record, please: C[N+](C)(C)CCOP(=O)([O-])OP(=O)(O)OC[C@H]1OC(n2ccc(N)nc2=O)[C@H](O)[C@@H]1O (stereo partly specified)
inactive

Next record, please: "COC(=O)c1cc(OC)c(OC)c(OC)c1NS(=O)(=O)c1cc(OC)ccc1OC"
inactive

Next record, please: O=C(O)C1C(O)CCC2CN3CCc4c([nH]c5ccccc45)C3CC21 (stereo unspecified)
inactive

Next record, please: "Cc1c(N(C)C)c(=O)n(-c2ccccc2)n1C"
inactive

Next record, please: "C/C=C(/C(=C/C)c1ccc(O)cc1)c1ccc(O)cc1"
active

Next record, please: COC(=O)[C@@H]1C(O)CC[C@H]2CN3CCc4c([nH]c5ccccc45)[C@@H]3C[C@@H]21 (stereo partly specified)
inactive

Next record, please: "CC1(C)/C(=N/OC(=O)c2cccc(C(F)(F)F)c2)[C@]2(C)CCC1C2"
inactive

Next record, please: CC1(C)C2CC[C@]3(C)C(C(=O)C=C4[C@@H]5C[C@@](C)(C(=O)O)CC[C@]5(C)CC[C@]43C)[C@@]2(C)CC[C@@H]1O (stereo partly specified)
inactive

Next record, please: O=C(O)COCC(=O)N1CCc2c([nH]c3ccccc23)C1C(F)(F)F (stereo unspecified)
inactive

Next record, please: COC1C(O)C(O)C(O)[C@@H](O)C1O (stereo partly specified)
inactive

Next record, please: CC1(C)C2CC[C@]3(C)C(C(=O)C=C4[C@@H]5C[C@@](C)(C(=O)O)CC[C@]5(C)CC[C@]43C)[C@@]2(C)CC[C@@H]1OC(=O)CCC(=O)O (stereo partly specified)
inactive

Next record, please: "C=CC(C)(C)c1c2c(c(O)c3c(=O)c4ccc(O)c(O)c4oc13)C=CC(C)(C)O2"
active

Next record, please: "CC(=O)OCC(CCn1cnc2cnc(N)nc21)COC(C)=O"
inactive

Next record, please: "O=[N+]([O-])O[C@H]1CO[C@H]2[C@@H]1OC[C@H]2O[N+](=O)[O-]"
inactive

Next record, please: "Cc1ccc(O)cc1"
inactive
